- System: PAK6
- Design: species or system human, MV4-11 + K-562 + COLO205 + SK-N-BE2 + OVCAR-8
- Test conditions: read-out: apparent Kd; compound concentrations:100 nM and 1000 nM (sheet 'Samples'); n = 1
Quantity: potency estimated from few doses (nM)
# unit: nM | format: bare number

Please review the entries below; each comes with its answer.
CCn1c(-c2nonc2N)nc2c(C#CC(C)(C)O)ncc(OC[C@@H]3CCCN3)c21.O=C(O)C(F)(F)F [GSK614526A] ... 821
COc1cc2ncn(-c3cc(OCCCc4ccccc4)c(C(N)=O)s3)c2cc1OC [GSK205189A] ... 1960
CN1C[C@@H]2Cn3c(c(C4=C(c5cn(C)c6ccccc56)C(=O)NC4=O)c4ccccc43)C[C@H]2C1.Cl [RO0320234-001] ... 111
Cl.Cn1c(=O)c(Cc2ccc(F)cc2F)cc2cnc(NC3CCOCC3)nc21 [RO3308757-001] ... 1650
CCn1c(-c2nonc2N)nc2c(C#CC(C)(C)O)nc(O[C@@H](CN)c3ccccc3)cc21.O=C(O)C(F)(F)F [GSK1007102B] ... 1090
O=C(O)C(F)(F)F.O=c1[nH]ccc2nc(N[C@@H]3CCNC3)nc(Nc3cc(Cl)cc(Cl)c3)c12 [GSK2188764A] ... 538

## Task Assign potency estimated from few doses to the following record: O=C1NC(=O)C(N2CCc3ccccc32)=C1c1ccccc1Cl [SB-373598]
## Result 419

## Task Assign potency estimated from few doses to the following record: NCCNS(=O)(=O)c1ccc(-c2ccnc3[nH]ccc23)cc1 [GSK977617A]
## Result 1310
